- STUDY_TARGET: HLA-B*08:01
- ASSAY_METHOD_TEXT: IEDB peptide-MHC binding, purified MHC/direct/fluorescence; filed as Kd, often an IC50 or EC50 that approximates it; bounds were set here for any values at or beyond the usual limits of such assays
- DETAILS: source organism: Mycobacterium tuberculosis variant bovis BCG str. Pasteur 1173P2
ASSAY_READOUT: Kd (µM)

[[record]]
residue_string = "IIRVTSELL"
assay_readout = "Kd"
result_units = "µM"
numeric_value = 13


====

- STUDY_TARGET: HLA-B*48:01
- ASSAY_METHOD_TEXT: IEDB peptide-MHC binding, purified MHC/direct/fluorescence; filed as Kd, often an IC50 or EC50 that approximates it; bounds were set here for any values at or beyond the usual limits of such assays
- DETAILS: source organism: Sudan virus - Boniface, Sudan,1976
pKd: −log10 of the molar value.
ASSAY_READOUT: pKd

[[record]]
residue_string = "TMMRHRREL"
result = "≤ 4.70"


====

- STUDY_TARGET: HLA-B*44:02
- ASSAY_METHOD_TEXT: IEDB peptide-MHC binding, purified MHC/direct/fluorescence; filed as Kd, often an IC50 or EC50 that approximates it; bounds were set here for any values at or beyond the usual limits of such assays
- DETAILS: source organism: Cryptosporidium parvum
pKd: −log10 of the molar value.
ASSAY_READOUT: pKd

[[record]]
residue_string = "NTSTCFQEY"
assay_readout = "pKd"
result = "≤ 4.70"


====

- STUDY_TARGET: HLA-B*27:03
- ASSAY_METHOD_TEXT: IEDB peptide-MHC binding, purified MHC/competitive/fluorescence; filed as Kd, often an IC50 or EC50 that approximates it; bounds were set here for any values at or beyond the usual limits of such assays
- DETAILS: source organism: Vibrio antiquarius
ASSAY_READOUT: Kd

[[record]]
residue_string = "FDLFGITLY"
study_target = "HLA-B*27:03"
assay_readout = "Kd"
result = "≥ 20 µM"


====

# pKd annotations
- STUDY_TARGET: HLA-B*40:02
- ASSAY_METHOD_TEXT: IEDB peptide-MHC binding, purified MHC/competitive/radioactivity; filed as Kd, often an IC50 or EC50 that approximates it; bounds were set here for any values at or beyond the usual limits of such assays
- DETAILS: source organism: Mammarenavirus brazilense
pKd: −log10 of the molar value.
ASSAY_READOUT: pKd

[[record]]
residue_string = "GERSRCYSL"
study_target = "HLA-B*40:02"
numeric_value = 7.29

[[record]]
residue_string = "FEEHLAPFMS"
study_target = "HLA-B*40:02"
numeric_value = 5.59


====

- STUDY_TARGET: HLA-B*39:01
- ASSAY_METHOD_TEXT: IEDB peptide-MHC binding, purified MHC/competitive/fluorescence; filed as Kd, often an IC50 or EC50 that approximates it; bounds were set here for any values at or beyond the usual limits of such assays
- DETAILS: source organism: Orthohantavirus negraense
ASSAY_READOUT: Kd

[[record]]
residue_string = "SLLFREVWK"
result = "≥ 20 µM"


====

- STUDY_TARGET: HLA-B*07:02
- ASSAY_METHOD_TEXT: IEDB peptide-MHC binding, purified MHC/direct/fluorescence; filed as Kd, often an IC50 or EC50 that approximates it; bounds were set here for any values at or beyond the usual limits of such assays
- DETAILS: source organism: Influenza A virus (A/Duck/Shantou/1881/00(H9N2))
ASSAY_READOUT: Kd (nM)

[[record]]
residue_string = "SLPPNFSSL"
assay_readout = "Kd"
numeric_value = 1650


====

- STUDY_TARGET: HLA-B*73:01
- ASSAY_METHOD_TEXT: IEDB peptide-MHC binding, purified MHC/direct/fluorescence; filed as Kd, often an IC50 or EC50 that approximates it; bounds were set here for any values at or beyond the usual limits of such assays
- DETAILS: source organism: Vibrio vulnificus YJ016
ASSAY_READOUT: Kd

[[record]]
residue_string = "KRFYQTVGF"
study_target = "HLA-B*73:01"
assay_readout = "Kd"
result = "4 µM"


====

- STUDY_TARGET: HLA-A*02:03
- ASSAY_METHOD_TEXT: IEDB peptide-MHC binding, purified MHC/competitive/radioactivity; filed as Kd, often an IC50 or EC50 that approximates it; bounds were set here for any values at or beyond the usual limits of such assays
- DETAILS: source organism: SARS coronavirus Tor2
pKd: −log10 of the molar value.
# pKd annotations
ASSAY_READOUT: pKd

[[record]]
residue_string = "VVFLHVTYV"
numeric_value = 9.55

[[record]]
residue_string = "NMLRIMASL"
numeric_value = 7.43

[[record]]
residue_string = "ALSGVFCGV"
numeric_value = 7.94

[[record]]
residue_string = "TLDAANHSI"
numeric_value = 6.55

[[record]]
residue_string = "VMCGGSLYV"
numeric_value = 8.12

[[record]]
residue_string = "LLFNKVTLA"
numeric_value = 8.97

[[record]]
residue_string = "SLCSCICTV"
numeric_value = 8.38


====

- STUDY_TARGET: HLA-B*27:05
- ASSAY_METHOD_TEXT: IEDB peptide-MHC binding, purified MHC/competitive/fluorescence; filed as Kd, often an IC50 or EC50 that approximates it; bounds were set here for any values at or beyond the usual limits of such assays
- DETAILS: source organism: Mycobacterium leprae
pKd: −log10 of the molar value.
ASSAY_READOUT: pKd

[[record]]
residue_string = "TVGYMYIMK"
study_target = "HLA-B*27:05"
assay_readout = "pKd"
result = "≤ 4.70"


====

- STUDY_TARGET: HLA-B*18:01
- ASSAY_METHOD_TEXT: IEDB peptide-MHC binding, purified MHC/direct/fluorescence; filed as Kd, often an IC50 or EC50 that approximates it; bounds were set here for any values at or beyond the usual limits of such assays
- DETAILS: source organism: Lyssavirus rabies
pKd: −log10 of the molar value.
ASSAY_READOUT: pKd

[[record]]
residue_string = "YLDNVGVHI"
result = "≤ 4.70"


====

- STUDY_TARGET: HLA-A*26:02
- ASSAY_METHOD_TEXT: IEDB peptide-MHC binding, purified MHC/direct/fluorescence; filed as Kd, often an IC50 or EC50 that approximates it; bounds were set here for any values at or beyond the usual limits of such assays
- DETAILS: source organism: Giardia lamblia ATCC 50803
ASSAY_READOUT: Kd

[[record]]
residue_string = "KSNRIPFLY"
assay_readout = "Kd"
result = "≥ 20 µM"


====

- STUDY_TARGET: HLA-B*18:01
- ASSAY_METHOD_TEXT: IEDB peptide-MHC binding, purified MHC/direct/fluorescence; filed as Kd, often an IC50 or EC50 that approximates it; bounds were set here for any values at or beyond the usual limits of such assays
- DETAILS: source organism: Lake Victoria marburgvirus - Popp
ASSAY_READOUT: Kd (µM)

[[record]]
residue_string = "GELRKAICL"
result_units = "µM"
numeric_value = 9


====

- STUDY_TARGET: HLA-B*15:01
- ASSAY_METHOD_TEXT: IEDB peptide-MHC binding, purified MHC/competitive/fluorescence; filed as Kd, often an IC50 or EC50 that approximates it; bounds were set here for any values at or beyond the usual limits of such assays
- DETAILS: source organism: Salmonella enterica subsp. enterica serovar Paratyphi A str. AKU_12601
pKd: −log10 of the molar value.
ASSAY_READOUT: pKd

[[record]]
residue_string = "AMDTHLYFE"
study_target = "HLA-B*15:01"
result = "≤ 4.70"


====

# Kd annotations
- STUDY_TARGET: HLA-A*03:01
- ASSAY_METHOD_TEXT: IEDB peptide-MHC binding, purified MHC/direct/fluorescence; filed as Kd, often an IC50 or EC50 that approximates it; bounds were set here for any values at or beyond the usual limits of such assays
- DETAILS: source organism: Choclo virus
ASSAY_READOUT: Kd

[[record]]
residue_string = "VMGVIGFGF"
result = "≥ 20 µM"

[[record]]
residue_string = "GSFRKICGF"
result = "≥ 20 µM"


====

# Kd annotations
- STUDY_TARGET: HLA-A*01:01
- ASSAY_METHOD_TEXT: IEDB peptide-MHC binding, purified MHC/competitive/radioactivity; filed as Kd, often an IC50 or EC50 that approximates it; bounds were set here for any values at or beyond the usual limits of such assays
- DETAILS: source organism: SARS coronavirus Tor2
ASSAY_READOUT: Kd (µM)

[[record]]
residue_string = "LKEPCPSGTY"
assay_readout = "Kd"
comparison_symbol = "="
numeric_value = 14.1

[[record]]
residue_string = "NKDGFLYVY"
assay_readout = "Kd"
comparison_symbol = "="
numeric_value = 13.9

[[record]]
residue_string = "PYPDPSRIL"
assay_readout = "Kd"
comparison_symbol = "≥"
numeric_value = 78.1

[[record]]
residue_string = "LTKHPNQEY"
assay_readout = "Kd"
comparison_symbol = "="
numeric_value = 17.3

[[record]]
residue_string = "LYIIKLVFL"
assay_readout = "Kd"
comparison_symbol = "="
numeric_value = 2.15

[[record]]
residue_string = "LFFFVYENAF"
assay_readout = "Kd"
comparison_symbol = "="
numeric_value = 9.72

[[record]]
residue_string = "NTCDGNTFTY"
assay_readout = "Kd"
comparison_symbol = "≥"
numeric_value = 89.3

[[record]]
residue_string = "AFLPFTLGI"
assay_readout = "Kd"
comparison_symbol = "≥"
numeric_value = 78.1

[[record]]
residue_string = "NMLRIMASL"
assay_readout = "Kd"
comparison_symbol = "≥"
numeric_value = 26.3

[[record]]
residue_string = "IYNEKVAGF"
assay_readout = "Kd"
comparison_symbol = "≥"
numeric_value = 78.1

[[record]]
residue_string = "VYDPLQPEL"
assay_readout = "Kd"
comparison_symbol = "≥"
numeric_value = 78.1

[[record]]
residue_string = "PFVVSTGYHF"
assay_readout = "Kd"
comparison_symbol = "="
numeric_value = 4.89

[[record]]
residue_string = "YYFMKFRRVF"
assay_readout = "Kd"
comparison_symbol = "="
numeric_value = 3.18

[[record]]
residue_string = "LFCLLNRYF"
assay_readout = "Kd"
comparison_symbol = "="
numeric_value = 3.44

[[record]]
residue_string = "HYVRITGLY"
assay_readout = "Kd"
comparison_symbol = "="
numeric_value = 18.2

